Below, each entry is listed with its recorded SILAC ratio, Ptgr2.
# targetOrTestSystem: AEA-DA lipid probe targets in Neuro2a cells (Mus musculus)
# conditionLabel: competitor 25 μM
Lab note: jot the number down without any unit.

Examples with their reported SILAC ratio, Ptgr2 follow.
compound | SILAC ratio, Ptgr2
C=CCN(C)CCCCCCOc1ccc(C(=O)c2ccc(Br)cc2)c(F)c1 [Ro 48-8071, reference compound] | 1.1
CN1CCN(C(=O)c2[nH]c3ccc([N+](=O)[O-])cc3c2-c2ccccc2)CC1 | 1.2

Incoming: Endpoint output: SILAC ratio, Ptgr2 of CN1CCN(C(=O)c2c(-c3ccccc3)c3cc([N+](=O)[O-])ccc3n2C)CC1 . Value?
Outgoing: 1.5

Incoming: Endpoint output: SILAC ratio, Ptgr2 of O=C(/C=C/c1cccnc1)NCCCCC1CCN(C(=O)c2ccccc2)CC1 [FK-866, reference compound] . Value?
Outgoing: 5.2

* * *

# targetOrTestSystem: AEA-DA lipid probe targets in Neuro2a cells (Mus musculus)
# conditionLabel: competitor 25 μM
measuredProperty: SILAC ratio Lmna
Lab note: jot the number down without any unit.

Incoming: Endpoint output: SILAC ratio Lmna of O=C(/C=C/c1cccnc1)NCCCCC1CCN(C(=O)c2ccccc2)CC1 [FK-866, reference compound] . Value?
Outgoing: 1.2

Incoming: Endpoint output: SILAC ratio Lmna of C=CCN(C)CCCCCCOc1ccc(C(=O)c2ccc(Br)cc2)c(F)c1 [Ro 48-8071, reference compound] . Value?
Outgoing: 1.1

Incoming: Endpoint output: SILAC ratio Lmna of CN1CCN(C(=O)c2[nH]c3ccc([N+](=O)[O-])cc3c2-c2ccccc2)CC1 . Value?
Outgoing: 1.1

Incoming: Endpoint output: SILAC ratio Lmna of CN1CCN(C(=O)c2c(-c3ccccc3)c3cc([N+](=O)[O-])ccc3n2C)CC1 . Value?
Outgoing: 1.3

* * *

# targetOrTestSystem: AEA-DA lipid probe targets in Neuro2a cells (Mus musculus)
# conditionLabel: competitor 25 μM
Below, each entry is listed with its recorded SILAC ratio Icmt.
Lab note: jot the number down without any unit.

Examples with their reported SILAC ratio Icmt follow.
compound | readoutValue
C=CCN(C)CCCCCCOc1ccc(C(=O)c2ccc(Br)cc2)c(F)c1 [Ro 48-8071, reference compound] | 1.6
CN1CCN(C(=O)c2c(-c3ccccc3)c3cc([N+](=O)[O-])ccc3n2C)CC1 | 1.0
CN1CCN(C(=O)c2[nH]c3ccc([N+](=O)[O-])cc3c2-c2ccccc2)CC1 | 0.9

Now consider the entry below.
Incoming: Hi! What's the reported SILAC ratio Icmt for O=C(/C=C/c1cccnc1)NCCCCC1CCN(C(=O)c2ccccc2)CC1 [FK-866, reference compound] on AEA-DA lipid probe targets in Neuro2a cells (Mus musculus)?
Outgoing: 1.3

* * *

# targetOrTestSystem: AEA-DA lipid probe targets in Neuro2a cells (Mus musculus, UniProt P18572)
# Sequence (P18572 22-389): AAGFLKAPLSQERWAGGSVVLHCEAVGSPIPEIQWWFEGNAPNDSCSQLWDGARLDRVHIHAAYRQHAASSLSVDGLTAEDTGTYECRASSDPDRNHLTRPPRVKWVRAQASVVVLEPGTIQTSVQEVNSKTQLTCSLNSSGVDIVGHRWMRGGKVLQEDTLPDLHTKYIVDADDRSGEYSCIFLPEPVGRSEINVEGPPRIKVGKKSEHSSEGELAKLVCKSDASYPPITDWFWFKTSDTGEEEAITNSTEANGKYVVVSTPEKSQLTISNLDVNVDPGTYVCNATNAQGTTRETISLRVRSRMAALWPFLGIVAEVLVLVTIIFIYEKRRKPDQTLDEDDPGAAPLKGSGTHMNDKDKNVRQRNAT
# conditionLabel: competitor 25 μM
Below, each entry is listed with its recorded SILAC ratio Bsg.

molecule | SILAC ratio Bsg
O=C(/C=C/c1cccnc1)NCCCCC1CCN(C(=O)c2ccccc2)CC1 [FK-866, reference compound] | 1.0

Incoming: Hi! What's the reported SILAC ratio Bsg for C=CCN(C)CCCCCCOc1ccc(C(=O)c2ccc(Br)cc2)c(F)c1 [Ro 48-8071, reference compound] on AEA-DA lipid probe targets in Neuro2a cells (Mus musculus, UniProt P18572)?
Outgoing: 1.1

Incoming: Hi! What's the reported SILAC ratio Bsg for CN1CCN(C(=O)c2[nH]c3ccc([N+](=O)[O-])cc3c2-c2ccccc2)CC1 on AEA-DA lipid probe targets in Neuro2a cells (Mus musculus, UniProt P18572)?
Outgoing: 1.6

Incoming: Hi! What's the reported SILAC ratio Bsg for CN1CCN(C(=O)c2c(-c3ccccc3)c3cc([N+](=O)[O-])ccc3n2C)CC1 on AEA-DA lipid probe targets in Neuro2a cells (Mus musculus, UniProt P18572)?
Outgoing: 1.3

* * *

# targetOrTestSystem: AEA-DA lipid probe targets in Neuro2a cells (Mus musculus, UniProt O55143)
# Sequence (O55143 whole entry): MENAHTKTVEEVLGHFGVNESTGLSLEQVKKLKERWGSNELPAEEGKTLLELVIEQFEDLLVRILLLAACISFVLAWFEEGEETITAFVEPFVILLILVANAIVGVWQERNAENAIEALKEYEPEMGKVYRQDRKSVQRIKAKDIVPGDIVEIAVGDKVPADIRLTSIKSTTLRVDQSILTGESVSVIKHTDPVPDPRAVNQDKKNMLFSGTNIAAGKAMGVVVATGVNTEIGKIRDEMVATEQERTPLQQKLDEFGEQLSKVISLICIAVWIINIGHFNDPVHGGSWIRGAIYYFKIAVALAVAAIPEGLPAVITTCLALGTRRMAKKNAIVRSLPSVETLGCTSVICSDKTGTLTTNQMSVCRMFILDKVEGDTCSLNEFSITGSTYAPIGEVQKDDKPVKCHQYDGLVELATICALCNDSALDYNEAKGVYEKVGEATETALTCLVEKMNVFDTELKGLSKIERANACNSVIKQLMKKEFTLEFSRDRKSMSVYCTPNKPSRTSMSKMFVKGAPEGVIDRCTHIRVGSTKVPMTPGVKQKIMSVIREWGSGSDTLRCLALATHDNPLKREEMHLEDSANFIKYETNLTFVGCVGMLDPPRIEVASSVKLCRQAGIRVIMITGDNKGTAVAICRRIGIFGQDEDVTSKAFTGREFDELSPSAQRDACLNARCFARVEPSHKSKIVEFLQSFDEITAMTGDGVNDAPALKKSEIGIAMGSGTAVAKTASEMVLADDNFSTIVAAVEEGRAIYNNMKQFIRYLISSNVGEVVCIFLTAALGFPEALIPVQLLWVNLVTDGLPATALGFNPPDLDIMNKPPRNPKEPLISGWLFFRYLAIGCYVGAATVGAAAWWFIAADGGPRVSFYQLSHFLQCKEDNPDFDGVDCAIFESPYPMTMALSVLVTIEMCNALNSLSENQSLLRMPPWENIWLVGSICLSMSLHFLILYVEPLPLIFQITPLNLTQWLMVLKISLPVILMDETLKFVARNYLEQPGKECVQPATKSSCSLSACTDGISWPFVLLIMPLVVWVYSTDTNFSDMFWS
# conditionLabel: competitor 25 μM
measuredProperty: SILAC ratio, Atp2a2
Lab note: jot the number down without any unit.

compound | measuredProperty | readoutValue
CN1CCN(C(=O)c2[nH]c3ccc([N+](=O)[O-])cc3c2-c2ccccc2)CC1 | SILAC ratio, Atp2a2 | 1.4
O=C(/C=C/c1cccnc1)NCCCCC1CCN(C(=O)c2ccccc2)CC1 [FK-866, reference compound] | SILAC ratio, Atp2a2 | 1.1
C=CCN(C)CCCCCCOc1ccc(C(=O)c2ccc(Br)cc2)c(F)c1 [Ro 48-8071, reference compound] | SILAC ratio, Atp2a2 | 1.2

Incoming: Endpoint output: SILAC ratio, Atp2a2 of CN1CCN(C(=O)c2c(-c3ccccc3)c3cc([N+](=O)[O-])ccc3n2C)CC1 . Value?
Outgoing: 1.3

* * *

Below, each entry is listed with its recorded pIC50.
# targetOrTestSystem: endogenous FAAH in Neuro2a lysates (Mus musculus)
# Construct: endogenous in cells; host or cells: Neuro2a membrane fraction
# Sequence (O08914 whole entry): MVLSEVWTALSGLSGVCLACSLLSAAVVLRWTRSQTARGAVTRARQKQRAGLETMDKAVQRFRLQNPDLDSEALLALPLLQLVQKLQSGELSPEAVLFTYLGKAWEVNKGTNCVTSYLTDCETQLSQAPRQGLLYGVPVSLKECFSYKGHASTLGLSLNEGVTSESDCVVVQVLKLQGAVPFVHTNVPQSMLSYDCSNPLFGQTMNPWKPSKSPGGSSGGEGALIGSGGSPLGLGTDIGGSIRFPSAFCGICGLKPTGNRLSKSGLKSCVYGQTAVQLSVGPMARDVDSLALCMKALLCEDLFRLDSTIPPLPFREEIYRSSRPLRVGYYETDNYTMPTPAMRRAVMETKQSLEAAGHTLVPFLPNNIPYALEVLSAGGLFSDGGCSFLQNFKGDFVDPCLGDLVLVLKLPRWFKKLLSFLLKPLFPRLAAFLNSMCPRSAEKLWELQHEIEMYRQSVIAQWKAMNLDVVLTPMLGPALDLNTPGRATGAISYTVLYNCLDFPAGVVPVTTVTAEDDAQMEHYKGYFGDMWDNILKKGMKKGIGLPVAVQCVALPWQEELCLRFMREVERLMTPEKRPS
# assayExplanation: FAAH activity by AEA hydrolysis in Neuro2a lysates
# Type: biochemical
# conditionLabel: read-out: IC50 against endogenous FAAH in Neuro2a lysates
pIC50: −log10 of the molar value.

molecule | measuredProperty | readoutValue
CN1CCN(C(=O)c2c(-c3ccccc3)c3cc([N+](=O)[O-])ccc3n2C)CC1 [KML110] | pIC50 | < 4.00

Now consider the entry below.
Incoming: Endpoint output: pIC50 of CN1CCN(C(=O)c2[nH]c3ccc([N+](=O)[O-])cc3c2-c2ccccc2)CC1 [MJN228] . Value?
Outgoing: < 4.00

* * *

# targetOrTestSystem: AEA-DA lipid probe targets in Neuro2a cells (Mus musculus, UniProt O35887)
# Sequence (O35887 20-315): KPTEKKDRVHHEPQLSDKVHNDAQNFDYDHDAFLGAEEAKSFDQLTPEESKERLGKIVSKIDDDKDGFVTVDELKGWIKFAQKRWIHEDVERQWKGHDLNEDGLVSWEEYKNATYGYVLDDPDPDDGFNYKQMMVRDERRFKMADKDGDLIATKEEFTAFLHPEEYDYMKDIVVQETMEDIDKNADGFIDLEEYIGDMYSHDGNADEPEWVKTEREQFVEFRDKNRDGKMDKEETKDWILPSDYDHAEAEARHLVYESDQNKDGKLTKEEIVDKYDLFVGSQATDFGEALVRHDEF
# conditionLabel: competitor 25 μM
measuredProperty: SILAC ratio, Calu
Lab note: jot the number down without any unit.

compound | SILAC ratio, Calu
O=C(/C=C/c1cccnc1)NCCCCC1CCN(C(=O)c2ccccc2)CC1 [FK-866, reference compound] | 1.0
CN1CCN(C(=O)c2[nH]c3ccc([N+](=O)[O-])cc3c2-c2ccccc2)CC1 [MJN228] | 1.5
CN1CCN(C(=O)c2c(-c3ccccc3)c3cc([N+](=O)[O-])ccc3n2C)CC1 [KML110] | 1.1

Incoming: Endpoint output: SILAC ratio, Calu of C=CCN(C)CCCCCCOc1ccc(C(=O)c2ccc(Br)cc2)c(F)c1 [Ro 48-8071, reference compound] . Value?
Outgoing: 0.9

* * *

# targetOrTestSystem: AEA-DA lipid probe targets in Neuro2a cells (Mus musculus, UniProt Q62186)
# Sequence (Q62186 24-172): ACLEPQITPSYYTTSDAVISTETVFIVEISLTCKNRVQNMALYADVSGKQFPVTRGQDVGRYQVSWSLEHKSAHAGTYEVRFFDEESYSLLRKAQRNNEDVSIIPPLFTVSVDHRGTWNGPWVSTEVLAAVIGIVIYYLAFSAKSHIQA
# conditionLabel: competitor 25 μM
measuredProperty: SILAC ratio, Ssr4
Lab note: jot the number down without any unit.

compound | SILAC ratio, Ssr4
O=C(/C=C/c1cccnc1)NCCCCC1CCN(C(=O)c2ccccc2)CC1 [FK-866, reference compound] | 1.2

Incoming: Endpoint output: SILAC ratio, Ssr4 of C=CCN(C)CCCCCCOc1ccc(C(=O)c2ccc(Br)cc2)c(F)c1 [Ro 48-8071, reference compound] . Value?
Outgoing: 1.2

Incoming: Endpoint output: SILAC ratio, Ssr4 of CN1CCN(C(=O)c2[nH]c3ccc([N+](=O)[O-])cc3c2-c2ccccc2)CC1 . Value?
Outgoing: 1.9

Incoming: Endpoint output: SILAC ratio, Ssr4 of CN1CCN(C(=O)c2c(-c3ccccc3)c3cc([N+](=O)[O-])ccc3n2C)CC1 . Value?
Outgoing: 1.5

* * *

# System: AEA-DA lipid probe targets in Neuro2a cells
# conditionLabel: competitor 25 μM; first Tmpo line (r51)
Below, each entry is listed with its recorded SILAC ratio, Tmpo.
Lab note: jot the number down without any unit.

Examples with their reported SILAC ratio, Tmpo follow.
compound | targetOrTestSystem | SILAC ratio, Tmpo
CN1CCN(C(=O)c2c(-c3ccccc3)c3cc([N+](=O)[O-])ccc3n2C)CC1 | AEA-DA lipid probe targets in Neuro2a cells | 1.5
CN1CCN(C(=O)c2[nH]c3ccc([N+](=O)[O-])cc3c2-c2ccccc2)CC1 | AEA-DA lipid probe targets in Neuro2a cells | 1.4
O=C(/C=C/c1cccnc1)NCCCCC1CCN(C(=O)c2ccccc2)CC1 [FK-866, reference compound] | AEA-DA lipid probe targets in Neuro2a cells | 1.0

Now consider the entry below.
Incoming: Endpoint output: SILAC ratio, Tmpo of C=CCN(C)CCCCCCOc1ccc(C(=O)c2ccc(Br)cc2)c(F)c1 [Ro 48-8071, reference compound] . Value?
Outgoing: 1.2

* * *

# targetOrTestSystem: AEA-DA lipid probe targets in Neuro2a cells (Mus musculus, UniProt Q62351)
# Sequence (Q62351 whole entry): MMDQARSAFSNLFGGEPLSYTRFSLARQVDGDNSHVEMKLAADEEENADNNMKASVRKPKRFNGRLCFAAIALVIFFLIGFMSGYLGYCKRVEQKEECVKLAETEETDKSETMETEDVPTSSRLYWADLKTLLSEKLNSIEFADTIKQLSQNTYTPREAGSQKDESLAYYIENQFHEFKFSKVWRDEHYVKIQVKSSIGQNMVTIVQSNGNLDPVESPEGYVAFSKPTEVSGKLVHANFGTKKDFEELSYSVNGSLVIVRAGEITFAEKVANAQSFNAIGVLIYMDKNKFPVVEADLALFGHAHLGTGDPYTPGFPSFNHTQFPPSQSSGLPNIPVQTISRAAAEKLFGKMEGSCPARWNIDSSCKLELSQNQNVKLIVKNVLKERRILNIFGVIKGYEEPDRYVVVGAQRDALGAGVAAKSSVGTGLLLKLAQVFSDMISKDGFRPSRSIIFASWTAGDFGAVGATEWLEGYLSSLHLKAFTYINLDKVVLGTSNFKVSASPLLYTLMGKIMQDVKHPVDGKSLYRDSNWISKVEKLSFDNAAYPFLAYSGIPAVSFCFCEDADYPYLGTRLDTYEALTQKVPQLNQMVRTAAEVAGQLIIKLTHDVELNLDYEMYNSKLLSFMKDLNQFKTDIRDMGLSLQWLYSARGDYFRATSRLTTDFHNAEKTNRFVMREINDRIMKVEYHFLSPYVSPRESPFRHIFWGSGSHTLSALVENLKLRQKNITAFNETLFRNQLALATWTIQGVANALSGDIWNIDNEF
# conditionLabel: competitor 25 μM
measuredProperty: SILAC ratio Tfrc
Lab note: jot the number down without any unit.

Examples with their reported SILAC ratio Tfrc follow.
molecule | targetOrTestSystem | SILAC ratio Tfrc
O=C(/C=C/c1cccnc1)NCCCCC1CCN(C(=O)c2ccccc2)CC1 [FK-866, reference compound] | AEA-DA lipid probe targets in Neuro2a cells (Mus musculus, UniProt Q62351) | 1.1
C=CCN(C)CCCCCCOc1ccc(C(=O)c2ccc(Br)cc2)c(F)c1 [Ro 48-8071, reference compound] | AEA-DA lipid probe targets in Neuro2a cells (Mus musculus, UniProt Q62351) | 0.8

Incoming: Endpoint output: SILAC ratio Tfrc of CN1CCN(C(=O)c2c(-c3ccccc3)c3cc([N+](=O)[O-])ccc3n2C)CC1 [KML110] . Value?
Outgoing: 1.1

Incoming: Endpoint output: SILAC ratio Tfrc of CN1CCN(C(=O)c2[nH]c3ccc([N+](=O)[O-])cc3c2-c2ccccc2)CC1 [MJN228] . Value?
Outgoing: 1.0

The reported numbers originate from patent US10168342B2.
